# procedureDetails: RAM signaling pathway blockade in yeast – S. cerevisiae, Pdr1DBD-CYC8 efflux-inhibited sensitized strain, primary screen (AID 1298);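 further: 0% = DMSO untreated cells without growth and 100% = 10 µM 1-NA-PP1 full growth; higher means more yeast growth rescued from 5-FOA killing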
# conditionDescription: S. cerevisiae cbk1-as DSE1-URA3 strain, 5-FOA growth OD615, 2 d; at 50 µM; hits give high values
measurementName: RAM network inhibition (%)
I only need the number, in %, no unit after it.

Ask | Bench note: what RAM network inhibition did COC(=O)C1=C(C)NC(=O)CC1c1cc2c(cc1Br)OCO2 (stereo not drawn) show?
Reply | 5.87

Ask | One more molecule: CN(C)c1nc(Oc2ccc(C(=O)OCC(=O)Nc3ccccc3)cc2)nc(N(C)C)n1
Reply | 1.24

Ask | One more molecule: Cc1ccc(-c2nc(C#N)c(NCCN3CCCCC3)o2)cc1
Reply | -1.13

Ask | One more molecule: C=CCSc1nnc2c(n1)[nH]c1c(C)cccc12
Reply | 5.38

Ask | One more molecule: CC1(C)CC(=O)C(C=NCc2cccnc2)=C(O)C1
Reply | 4.76

Ask | One more molecule: O=C(O)CSCC(=O)c1ccccc1
Reply | -0.89

Ask | One more molecule: Cc1ccc(OCCNC(=O)c2ccccc2N)cc1
Reply | -0.05

Ask | One more molecule: O=C(NC1CCCCCCC1)c1c(O)c2ccccc2[nH]c1=O
Reply | -0.37

Ask | One more molecule: O=C(CN1CCN(C2CCCCC2)CC1)Nc1ccccc1N1CCCCC1
Reply | 5.95

Ask | One more molecule: COCCn1c(CN2CC(C)CC(C)C2)nc2c1c(=O)n(C)c(=O)n2C (stereo not drawn)
Reply | -0.26

Ask | One more molecule: O=C(O)CCCC(=O)Nc1ccccc1Br
Reply | 2.11

Ask | One more molecule: CCN(CC)CCCNc1nc2ccccc2[nH]1
Reply | 4.31

Ask | One more molecule: CCc1cc2c(=O)n(N)c(CCC(=O)O)nc2s1
Reply | 8.13

Ask | One more molecule: COc1ccc(-c2nnc(SCC(=O)NC3CCCCC3)o2)cc1OC
Reply | 2.65

Ask | One more molecule: COc1ccc(OCC(=O)Nc2ccccc2OC)cc1
Reply | -2.32

Ask | One more molecule: O=C(c1ccccc1F)N1CCN=C1SCc1cccnc1
Reply | 4.47

Ask | One more molecule: c1cncc(-c2nc3ccccn3c2Nc2ccc3c(c2)OCCO3)c1
Reply | 4.54

Ask | One more molecule: Cn1c(=O)[nH]c(=O)c2c1nc(NC1CCCCC1)n2CCO
Reply | 3.67

Ask | One more molecule: O=C(Cn1ncc2c(=O)oc3ccccc3c21)NCC1COc2ccccc2O1 (stereo not drawn)
Reply | 3.56

Ask | One more molecule: CC(C)(C)c1ccc(OCC(O)CS(=O)(=O)c2ccccn2)cc1 (stereo not drawn)
Reply | 4.16

Ask | One more molecule: Cc1cccc(NCc2nc(-c3ccccc3)no2)c1
Reply | 3.44

Ask | One more molecule: N#CCc1ccc(NS(=O)(=O)c2ccc(N3CCCC3=O)cc2)cc1
Reply | 0.32

Ask | One more molecule: CCOc1ccc(C(=O)NCc2ccncc2)cc1OCC
Reply | 0.83

Ask | One more molecule: COc1ccc(-c2nc(CSCC(=O)N3CCN(C4CCCCC4)CC3)c(C)o2)cc1OC
Reply | 2.38

Ask | One more molecule: O=C(NCC1OCCc2ccccc21)c1ccco1 (stereo not drawn)
Reply | 6.11

Ask | One more molecule: COc1ccccc1NC(=O)Cn1c(=O)n2nc(C)nc2c2ccccc21
Reply | 2.31

Ask | One more molecule: COc1ccc(NC(=O)CCS(=O)(=O)c2cccc3nonc23)c(OC)c1
Reply | 2.06

Ask | One more molecule: CCc1c(C)nc2[nH]nc(-c3ccccc3)n2c1=O
Reply | 4.8

Ask | One more molecule: Cc1nn(C)c(C)c1NS(=O)(=O)c1ccccc1
Reply | 6.15

Ask | One more molecule: O=C(NCS(=O)(=O)c1ccccc1)c1ccccc1
Reply | 1.79

Ask | One more molecule: CC1=C(C(=O)OC2CCCCCCC2)C(c2cccc(O)c2)NC(=O)N1 (stereo not drawn)
Reply | 0.89

Ask | One more molecule: Cn1c(Cn2c(=O)sc3ccccc32)nnc1SCC(=O)N1CCN(c2ccccc2)CC1
Reply | 3.66

Ask | One more molecule: CCNS(=O)(=O)c1ccc(NC(=O)c2cccnc2)cc1
Reply | 6.74

Ask | One more molecule: CC1CCCC(C)N1CCCNC(=O)c1cc2c(=O)n(C)c3ccccc3c2n1C (stereo not drawn)
Reply | 2.26

Ask | One more molecule: CCCC(=O)C1=C(SCC)CC(C)(C)C(C(=O)OC)C1=O (stereo not drawn)
Reply | 3.4

Ask | One more molecule: CC(C)c1nc2cc3ccccc3cc2[nH]1
Reply | 7.45

Ask | One more molecule: CC(=O)N1c2ccccc2N(Cc2ccc(C)cc2C)C(=O)C1(C)C
Reply | 9.4

Ask | One more molecule: CN(CCc1ccccn1)C(=O)Nc1ccc(F)cc1
Reply | 5.39

###

# procedureDetails: Restrictive medium S. cerevisiae growth inhibition, OD615, pilot screen of yeast lifespan reduction project, restrictive growth control (AID 706);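 further: modified DeaD lifespan yeast strain shifted to restrictive glucose medium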
# conditionDescription: OD615, 48 h, at 10 µM, hits give high values
measurementName: growth inhibition (%)
I only need the number, in %, no unit after it.

Ask | Bench note: what growth inhibition did O=C(Nc1ccc(N2CCN(C(=O)c3ccccc3)CC2)c(Cl)c1)c1ccco1 show?
Reply | 14.1

Ask | One more compound: CCOc1ccc(N(CC(=O)NCC(C)C)S(C)(=O)=O)cc1
Reply | -4.28

Ask | One more compound: Cc1ccc(C)c(SCC(=O)OCC(=O)Nc2ccc(S(=O)(=O)N3CCOCC3)cc2)c1
Reply | -17.7

Ask | One more compound: Cc1csc2ncc(C(=O)Nc3ccc(C(F)(F)F)cc3)c(=O)n12
Reply | -17.2

Ask | One more compound: O=C1C(C=NCc2cccnc2)=C(O)c2ccccc21
Reply | -0.095

Ask | One more compound: CCOC(=O)CNC(=O)c1c2c(nc3ccccc13)CCCC2
Reply | -1.75

Ask | One more compound: O=S(=O)(NCC(c1cccnc1)N1CCN(c2ccc(F)cc2)CC1)c1ccc(F)cc1 (stereo unspecified)
Reply | -0.65

Ask | One more compound: Cc1cc(N2CCOCC2)nc(SCC(=O)c2ccccc2)n1
Reply | -4.63

Ask | One more compound: COc1ccccc1CNC(=O)C1CCN(S(=O)(=O)c2cccc3cccnc23)CC1
Reply | 0.02

Ask | One more compound: O=C1c2ccccc2C(=O)N1CCC(=O)N1CCCc2ccccc21
Reply | -13.7

Ask | One more compound: CCOC(=O)N1CCN(C(=O)C(NC(=O)C2CCC(C)CC2)C(C)C)CC1 (stereo unspecified)
Reply | 7.68

Ask | One more compound: COCCOC(=O)C1=C(C)NC(=O)NC1C1CC=CCC1 (stereo unspecified)
Reply | -6.73

Ask | One more compound: CCOC(=O)c1[nH]c2c(c1C)C(=O)CC(c1ccc(F)cc1)C2 (stereo unspecified)
Reply | -18.5

Ask | One more compound: Cn1c(=O)oc2cc(S(=O)(=O)N3CCC(N4CCCCC4)CC3)ccc21
Reply | -13.1

Ask | One more compound: CCCC1(C(=O)O)NC(c2ccccc2O)C2C(=O)N(c3cccc(Cl)c3)C(=O)C21 (stereo unspecified)
Reply | 7.74

Ask | One more compound: CCOC(=O)C1CCCCN1Cc1cc(Cl)ccc1O (stereo unspecified)
Reply | -13.2

###

Could you please report measured viability for the items listed next?
# procedureDetails: growth suppression of PTEN-deleted HCT116, pilot screen, cell-based, HCT116 clonal line, CellTiter-Glo (AID 824);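 further: 0% = 20 µM Hyamine control and 100% = vehicle cell control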
# conditionDescription: 60 h, at 10 µM, hits give low values
Records with an inconclusive call do not appear.
I only need the number, in %, no unit after it.

Ask | Bench note: what viability did COC(=O)c1ccc(-c2nc(-c3cccs3)no2)cc1 show?
Reply | 76.7

Ask | One more compound: COc1cccc(-c2cc(C(=O)N3CCN(c4ncccn4)CC3)c3ccccc3n2)c1
Reply | 64

Ask | One more compound: CC(c1ccccc1)N1CNc2c(c(=O)n(C)c(=O)n2C)C1 (stereo not given)
Reply | 92.2

Ask | One more compound: O=C(Sc1nnc(-c2ccccc2)o1)N1c2ccccc2Sc2ccccc21
Reply | 89.7

Ask | One more compound: O=C(Cn1cnc2c(cnn2-c2ccc(Cl)cc2)c1=O)NC1CCCCC1
Reply | 91.7

###

# procedureDetails: RAM signaling pathway blockade in yeast – S. cerevisiae, Pdr1DBD-CYC8 efflux-inhibited sensitized strain, primary screen (AID 1298);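 further: 0% = DMSO untreated cells without growth and 100% = 10 µM 1-NA-PP1 full growth; higher means more yeast growth rescued from 5-FOA killing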
# conditionDescription: S. cerevisiae cbk1-as DSE1-URA3 strain, 5-FOA growth OD615, 2 d; at 50 µM; hits give high values
measurementName: RAM network inhibition (%)
I only need the number, in %, no unit after it.

Ask | Bench note: what RAM network inhibition did Cc1ccc2oc(=O)c3cc(C(=O)NCc4ccco4)sc3c2c1 show?
Reply | 2.71

Ask | One more molecule: CCOC(=O)C1=C(C)Nc2nc(C)nn2C1c1ccc(OC)c(OC)c1 (centres undefined)
Reply | 0.06

Ask | One more molecule: CCOC(=O)Cn1c(=O)oc2cc(S(=O)(=O)N3CCCC(C(=O)OCC)C3)ccc21 (centres undefined)
Reply | 1.99

Ask | One more molecule: O=C(CCCCCn1c(=O)[nH]c2ccsc2c1=O)N1CCN(C2CCCCC2)CC1
Reply | 3

Ask | One more molecule: Cc1ccc(C2/C(=C(/O)c3ccc(Cl)cc3)C(=O)C(=O)N2CC2CCCO2)o1 (centres undefined)
Reply | -0.36

Ask | One more molecule: Cc1nc2ccccc2c2oc(C(=O)NCc3ccc4c(c3)OCO4)cc12
Reply | 5.03

Ask | One more molecule: Cc1cc(=O)[nH]c(Cc2ccc(OC(C)C)cc2)n1
Reply | 5.82

Ask | One more molecule: O=C(Nc1ccccc1C(=O)NCc1ccco1)NC1CCCCC1
Reply | 0.59

Ask | One more molecule: C(=N\n1cnnc1)/C1CCCCC1
Reply | 6.93

Ask | One more molecule: O=C(OCC(=O)N1CCN(C(=O)c2ccco2)CC1)c1sc2ccccc2c1Cl
Reply | 5.57

Ask | One more molecule: O=C(CCSc1nc(-c2ccc3c(c2)OCO3)cc(C(F)(F)F)n1)NCc1ccco1
Reply | 2.97

Ask | One more molecule: CCOC(=O)N1CCN(C(=O)c2ccc3c(SCC(=O)O)c4c(nc3c2)CCC4)CC1
Reply | 2.81

Ask | One more molecule: Cc1cc(-c2ccccc2)n2ncc(C#N)c2n1
Reply | 2.36

Ask | One more molecule: CCN1CCN(CCCNC(=O)Cn2cc3c(n2)CCCC3)CC1
Reply | 0.76

Ask | One more molecule: CCCCCn1c(CNC(C)=O)nc2ccccc21
Reply | 7.59

Ask | One more molecule: O=C1Nc2cc(Cl)cnc2N2CCCC12 (centres undefined)
Reply | 0

Ask | One more molecule: CCOC(=O)C1=C(C)NC(C)=C(C(=O)OCC)C1c1nc2ccccc2[nH]1
Reply | 1.43

Ask | One more molecule: CCN1C(=O)CC(N2CCN(c3ccc(Cl)cc3)CC2)C1=O (centres undefined)
Reply | 4.19

Ask | One more molecule: CC(=O)Nc1c2c(nn1-c1cccc(Cl)c1)CS(=O)C2 (centres undefined)
Reply | 0.11

Ask | One more molecule: CCOC(=O)NCCc1ccc(OC)cc1
Reply | 0.56

Ask | One more molecule: COc1ccc(-c2nc(C(N)=O)c3[nH]c(=O)n(-c4cccc(C)c4)c3n2)c(OC)c1
Reply | 5.6

Ask | One more molecule: CNC(=O)c1cc2cc(OC)ccc2n1CCN(C)C
Reply | 6.18

Ask | One more molecule: COc1ccc(-c2nc(-c3ccc(NC(=O)c4ccncc4)cc3)no2)cc1OC
Reply | 2.92

Ask | One more molecule: O=C(CC1Oc2ccccc2NC1=O)NC1CCCC1 (centres undefined)
Reply | 0.1

Ask | One more molecule: Cn1c(SCC(=O)N2CCCCC2)nc2c([nH]c3ccccc32)c1=O
Reply | 4.75

Ask | One more molecule: COc1cc(OC)nc(NC(=O)C(C)C)n1
Reply | 4.06

Ask | One more molecule: Cc1cccc(C2N(c3ccc(F)cc3)C(=O)C3CCCN32)c1 (centres undefined)
Reply | 3.46

Ask | One more molecule: COC(=O)C(C)Sc1nnc(Cc2cc(=O)[nH]c(=O)[nH]2)n1-c1cccc(OC)c1 (centres undefined)
Reply | 3

Ask | One more molecule: CC1=C(NCCc2ccccc2)CCC1=O
Reply | 2.7
